# Experimental System: Matrix metalloproteinase-14 (Homo sapiens)
# Method Summary: Inhibition of human MMP-14 at 100 uM relative to control
Readout Label: inhibition (%)
Please state the figure in %; there is no need to write the unit.

Value of inhibition reported for the molecule `O=C(CCS)Nc1cccc(C(=O)O)c1` is 61

Value of inhibition reported for the molecule `NC(=O)NS(=O)(=O)c1ccc(NC(=O)CCS)cc1` is 73

Value of inhibition reported for the molecule `O=C(CCS)Nc1ccccc1C(=O)O` is 77

Value of inhibition reported for the molecule `O=C(CCS)Nc1ccc(Cl)c(Cl)c1` is 18

###

# Method Summary: Lipophilicity, log D of the compound at pH 7.4 by HPLC-MS analysis
# Type: physicochemical
# Condition Context: buffer
Readout Label: logD

Value of logD reported for the compound `CCN(CC)Cc1cccc(NC(=O)CCS)c1` is 0.24

Value of logD reported for the compound `O=C(CCS)Nc1ccc(O)cc1` is 0.32

Value of logD reported for the compound `COC(=O)c1ccc(NC(=O)CCS)cc1` is 1.95

Value of logD reported for the compound `CN1CCN(Cc2ccc(NC(=O)CCS)cc2)CC1` is 0.28

Value of logD reported for the compound `CS(=O)(=O)Nc1ccccc1NC(=O)CCS` is 1.1

Value of logD reported for the compound `N=C(N)NS(=O)(=O)c1ccc(NC(=O)CCS)cc1` is -0.5

Value of logD reported for the compound `O=C(CCS)Nc1ccc(Cl)c(Cl)c1` is 5.34

The origin of these recorded values is ChEMBL document CHEMBL5046281.
